// provenance: paper PMC9501899

test: Pharmacokinetic (PK) study in mice; format: in vivo, C57BL/6 male mice; conditions: male, C57BL/6; PO 30 mg/kg, mouse plasma
observed.property: AUC(0-t)

>  <compound>
CNc1nc(Nc2ccc(C(=O)N3CCN(C[C@H]4CC[C@H](CSC(C)(C)[C@H](NC(=O)C5(F)CC5)C(=O)N5C[C@H](O)CC5C(=O)NCc5ccc(-c6scnc6C)cc5)CC4)CC3)cc2OC)ncc1Cl (stereo partly shown)

>  <observed.property>
AUC(0-t)

>  <reported.value>
21300 ng·h/mL

$$$$

* * *

assay: Mouse liver microsome stability; format: in vitro ADME; settings: liver microsomes, pH 7.4
observed.property: CLint scaled at 1 µM (mL/min/kg)

>  <compound>
CNc1nc(Nc2ccc(C(=O)N3CCN(C[C@H]4CC[C@H](CSC(C)(C)[C@H](NC(=O)C5(F)CC5)C(=O)N5C[C@H](O)CC5C(=O)NCc5ccc(-c6scnc6C)cc5)CC4)CC3)cc2OC)ncc1Cl (stereo partly shown) [XL01126]

>  <reported.value>
1490

$$$$

* * *

assay: Caco-2 cell permeability; assay type: in vitro ADME; conditions: human, B–A

>  <compound>
CNc1nc(Nc2ccc(C(=O)N3CCN(C[C@H]4CC[C@H](CSC(C)(C)[C@H](NC(=O)C5(F)CC5)C(=O)N5C[C@H](O)CC5C(=O)NCc5ccc(-c6scnc6C)cc5)CC4)CC3)cc2OC)ncc1Cl (stereo partly shown)

>  <Papp B→A at 90 min, 10 µM>
< 1.43 ×10⁻⁶ cm/s

$$$$

* * *

test: Pharmacokinetic (PK) study in mice; type: in vivo, C57BL/6 male mice; conditions: male, C57BL/6; IV 5 mg/kg, mouse plasma

>  <compound>
CNc1nc(Nc2ccc(C(=O)N3CCN(C[C@H]4CC[C@H](CSC(C)(C)[C@H](NC(=O)C5(F)CC5)C(=O)N5C[C@H](O)CC5C(=O)NCc5ccc(-c6scnc6C)cc5)CC4)CC3)cc2OC)ncc1Cl (stereo partly shown) [XL01126]

>  <AUC(0-inf) / ng·h/mL>
24000

$$$$

* * *

assay: Pharmacokinetic (PK) study in mice; assay type: in vivo, C57BL/6 male mice; conditions: male, C57BL/6; PO 30 mg/kg, mouse plasma

>  <compound>
CNc1nc(Nc2ccc(C(=O)N3CCN(C[C@H]4CC[C@H](CSC(C)(C)[C@H](NC(=O)C5(F)CC5)C(=O)N5C[C@H](O)CC5C(=O)NCc5ccc(-c6scnc6C)cc5)CC4)CC3)cc2OC)ncc1Cl (stereo partly shown)

>  <value.unit>
h

>  <half-life>
21.9

$$$$

* * *

assay: Pharmacokinetic (PK) study in mice; type: in vivo, C57BL/6 male mice; conditions: male, C57BL/6; IP 30 mg/kg, mouse plasma

>  <compound>
CNc1nc(Nc2ccc(C(=O)N3CCN(C[C@H]4CC[C@H](CSC(C)(C)[C@H](NC(=O)C5(F)CC5)C(=O)N5C[C@H](O)CC5C(=O)NCc5ccc(-c6scnc6C)cc5)CC4)CC3)cc2OC)ncc1Cl (stereo partly shown) [XL01126]

>  <AUC(0-inf), ng·h/mL>
64100

$$$$

* * *

Test: Pharmacokinetic (PK) study in mice
Type: in vivo, C57BL/6 male mice
Conditions: male, C57BL/6, mouse, brain, other: IV; mice, single dose IV, IP or PO; read-out: brain-to-plasma ratio
Protocol: Data are mean (±standard deviation (SD)) from three mice at each time point. […] PK profiling was outsourced and undertaken by Shanghai ChemPartner Co., Ltd. All animal experiments performed were conducted in compliance with the Institutional Animal Care and Use Committee (IACUC) and the Office of Laboratory Animal Welfare (OLAW) guidelines. […] Data were analyzed by WinNonLin and Microsoft Excel.

>  <compound>
CNc1nc(Nc2ccc(C(=O)N3CCN(C[C@H]4CC[C@H](CSC(C)(C)[C@H](NC(=O)C5(F)CC5)C(=O)N5C[C@H](O)CC5C(=O)NCc5ccc(-c6scnc6C)cc5)CC4)CC3)cc2OC)ncc1Cl (stereo partly shown) [XL01126]

>  <Kp>
< 0.035

$$$$
